target: Fuc(a1-2)Gal(b1-4)GlcNAc(b1-3)[Fuc(a1-2)Gal(b1-4)GlcNAc(b1-6)]GalNAc; experiment: glycan array binding signal (z-score within array); higher = stronger binding; conditions: glycan notation: IUPAC condensed, linker removed
Many of the other results were omitted from the sample, so the strongest signals are more common in it than they were.
Assign criterion met whenever glycan array binding signal (z-score) does not fall below -0.3; assign criterion not met whenever it does.

{"columns": ["binder", "classLabel"],
 "data": [
  ["AAA (Anguilla anguilla), Q7SIC1 (protein) VIPEGYTQENVAVRGKATQSAQLRGEHAANSEASNAIDGNRDSNFYHGSCTHSSGQANPWWRVDLLQVYTITSVTITNRGDCCGERISGAEINIGQHLASNGVNNPECSVIGSMATGETKTFHCPAPMIGRYVVTYLPTSESLHLCEVEVNVDKPAAA", "criterion met"]
]}

Problem: Could you verify whether the entry Agalectin (Anopheles gambiae) (protein) MSNRPFTAKFPRYPENGDEVFIRGKLKDDAKSFSVNFCLPRPAQVAEHQTPPYIALHFKTIYDERDDTSRVVLNWKNLQWQQEEVLDNYWHVDRSQTFRVVFRLHEDCIKVFVNSVDHPPDYQFPVQLPLDQIESIELWDDVEHVEEISFRYDNGNSY shows glycan array binding signal (z-score) of no less than -0.3?
Solution: criterion not met

Problem: Could you verify whether the entry CCL1 (Coprinopsis cinerea) (protein) MDTQAKPPAGRYVIYNRVLSPNGEKLALTYPGYQREALTLTPLHHSANQIWILNNWDATTSSLTPETARNTQVGWGSGNVPIVLPPGNYVWTLASSAGGYIIQDGGKTVYWNAGEAVANTKVSIGGDNGLQARWIFERV shows glycan array binding signal (z-score) of no less than -0.3?
Solution: criterion met

Problem: Could you verify whether the entry CGL (Crenomytilus grayanus), H2FH31 (protein) MTTFLIKHKASGKFLHPYGGSSNPANNTKLVLHSDIHERMYFQFDVVDERWGYIKHVASGKIVHPYGGQANPPNETNMVLHQDRHDRALFAMDFFNDNIMHKGGKYIHPKGGSPNPPNNTETVIHGDKHAAMEFIFVSPKNKDKRVLVYA shows glycan array binding signal (z-score) of no less than -0.3?
Solution: criterion met

Problem: Could you verify whether the entry XCL (Xerocomus chrysenteron) (protein) MSYSITLRVYQTNRDRGYFSIVEKTVWHFANGGTWSEANGAHTLTQGGSGTSGVLRFLSTKGERITVAVGVHNYKRWCDVVTGLKPDETALVINPQYYNNGGRDYVREKQLAEYSVTSAIGTKVEVVYTVAEGNNLEANVIFS shows glycan array binding signal (z-score) of no less than -0.3?
Solution: criterion met

Reference source: the supplement of paper PMC8728848
